# Tested on: C. elegans
# test.name: microbe, parasite or virus in culture
# measurement.context: Caenorhabditis elegans, 0 h, read-out: Percentage of motility inhibition 0 h, Table S2, C. elegans SS assay, 110 μM, 0 h, averages of 4 data points
Classify by measured inhibition at 110 µM: t if it is equal to or exceeds 4%, f if it is smaller.

Qu. Tell me whether inhibition at 110 µM is at least 4% here: CC(=O)O[C@H]1C[C@H](O[C@H]2[C@@H](O)C[C@H](O[C@H]3[C@@H](O)C[C@H](O[C@H]4CC[C@@]5(C)[C@H](CC[C@@H]6[C@@H]5C[C@@H](O)[C@]5(C)[C@@H](C7=CC(=O)OC7)CC[C@]65O)C4)O[C@@H]3C)O[C@@H]2C)O[C@H](C)[C@H]1O[C@@H]1O[C@H](CO)[C@@H](O)[C@H](O)[C@H]1O [Lanatoside C]
Ans. f

Qu. Could you tell me if the measured inhibition at 110 µM of C[C@]1(COc2ccc(N3CCC(Oc4ccc(OC(F)(F)F)cc4)CC3)cc2)Cn2cc([N+](=O)[O-])nc2O1 [Delamanid] reaches 4% or more?
Ans. t

Qu. For this compound, is measured inhibition at 110 µM 4% or higher? C/C=C(\C)C(=O)O[C@H]1C[C@@H](OC(C)=O)[C@@]2(C(=O)OC)CO[C@H]3[C@@H](O)[C@@](C)([C@]45O[C@@]4(C)[C@H]4C[C@@H]5O[C@@H]5OC=C[C@@]54O)[C@H]4[C@]1(CO[C@]4(O)C(=O)OC)[C@@H]32 [Azadirachtin]
Ans. t

Qu. # bool: inhibition at 110 µM of C[C@@]1(CO)C[C@@H](O)C[C@@]2(C)[C@@H]3CC[C@](C)([C@@H](O)CO)C=C3CC[C@H]12 [Kirenol] >= 4%
Ans. f

Qu. Can NC(=O)NC1NC(=O)NC1=O (stereo not drawn) [Allantoin] be said to have inhibition at 110 µM at or above 4%?
Ans. f

Qu. // inclusive: inhibition at 110 µM at least 4%? input: CC[C@]12CCCN3CCc4c(n(c5ccccc45)C(=O)C1)[C@@H]32 [Vinburnine]
Ans. f

Qu. Identify whether the reported inhibition at 110 µM of the following compound is 4% or greater: CC(C)=CCC[C@](C)(O[C@@H]1O[C@H](CO[C@H]2O[C@H](CO)[C@@H](O)[C@@H]2O)[C@@H](O)[C@H](O)[C@H]1O)[C@H]1CC[C@]2(C)[C@@H]1[C@H](O)C[C@@H]1[C@@]3(C)CC[C@H](O)C(C)(C)[C@@H]3[C@@H](O)C[C@]12C [Ginsenoside F5]
Ans. t

Qu. Could you verify whether the entry COC(=O)Nc1nc2ccc([S+]([O-])c3ccccc3)cc2[nH]1 (stereo not drawn) [Oxfendazole] shows inhibition at 110 µM of no less than 4%?
Ans. t

Qu. Decide: inhibition at 110 µM of COc1c(O)cc2oc(-c3ccccc3)cc(=O)c2c1O [Oroxylin A] >= 4%?
Ans. t

Qu. Say whether C[C@H]1O[C@@H](O[C@H]2[C@@H](O)C[C@H](O[C@H]3[C@@H](O)C[C@H](O[C@H]4CC[C@@]5(C)[C@H](CC[C@@H]6[C@@H]5CC[C@]5(C)[C@@H](C7=CC(=O)OC7)CC[C@]65O)C4)O[C@@H]3C)O[C@@H]2C)C[C@H](O)[C@@H]1O [Digitoxin] shows inhibition at 110 µM of 4% or more.
Ans. f

Qu. Evaluate CC1(C)CC[C@]2(C(=O)O)CC[C@]3(C)C(=CC[C@@H]4[C@@]5(C)C[C@@H](O)[C@H](O)[C@@](C)(CO)[C@@H]5CC[C@]43C)[C@@H]2[C@@H]1O [Arjungenin] : inhibition at 110 µM at minimum 4%?
Ans. f

Recorded values, source paper PMC11855827.
